meta.source: ChEMBL document CHEMBL1201862

System: SK-MEL-28
Experiment: NCI tumour cell line growth inhibition, 48 h
The source made the active and inactive calls. Cut-off read from the data, not from the text of the source: active = GI50 up to about 1.1 µM and inactive = higher.
Outcomes you can answer with include only these: yes for active, no for inactive

Worked cases, answers included:
molecule: CC(=O)N1c2ccccc2[C@H]2CCc3c([nH]c4ccccc34)[C@H]21
experimental.target: SK-MEL-28
class.label: no
--
molecule: C=CC1ON(Cc2ccccc2)CCc2cc(OC)c(OC)cc21 (stereo not given)
experimental.target: SK-MEL-28
class.label: no
--
molecule: CC1=CCC(=O)[C@]2(C)C(CC(=O)O)[C@]3(C)C4=C(C)C(c5ccoc5)C[C@@H]4O[C@@H]3[C@H](O)[C@@H]12 (stereo not given in full)
experimental.target: SK-MEL-28
class.label: no
--
molecule: Cc1nn2c(=O)c([N+](=O)[O-])c(/C=C/c3ccccc3)nc2s1
experimental.target: SK-MEL-28
class.label: no
--
molecule: O=c1c(C(c2ccco2)c2c(O)oc3ccccc3c2=O)c(O)oc2ccccc12
experimental.target: SK-MEL-28
class.label: no

Req: What outcome does the record of this test show for Cc1cc2c([nH]c3ccccc32)c2c1OC(C)(C)C1C3CC(C)(C)Oc4c(C)cc5c6ccccc6n(c5c43)C21 (stereo not given) ?
Resp: no
